- Test details: yeast display, Sf9 membrane polyspecificity reagent, FACS + sequencing; frameworks hold sequencing errors
Assay metric: polyreactivity (PSR sort gate)

QVQLVESGGGLVQAGGSLRLSSAASGFIYRGNVMGWYRQAPGKERELVAAITWSGGSTYYADSVKGRFTISRDNAKNTVYLQMNSLKPDDTAVYYCNADLYIYEWYPALHSNDYWGQGSQVTVSS: low polyreactivity
QEQLQESGGGLVQAGGSLRLSCAASGSISQAWYMGWYRQAPGKERELVAAINVGAITYYADSVKGRFSISRDNAKNTVYLPMNSLTPEDTAVYYCAVDQYSEAYYDYWGQGTQATVSS: high polyreactivity
QVQLVESGGGLVQAGGSLRLSCAASGSIFAYNAMGWYRQAPGKERELVAAISAGGRTKYADSVKGRFTISRDNAKNTVYLQMNCLKPEDTAVYYCAAESYTGKYSWVWKWYDYWGQGTQVTVSS: low polyreactivity
QVQLVESGGGLVQAGGSLRLSCAASGSIFHANAMGWYRQAPGKERELVAAITRSGRSTYYADSVKGRFTISRDNAKNTVYLQMNSLKPEDTAVYYCAARYYAGGLSSYDYWGQGTQVTVSS: high polyreactivity
QVQLVESGGGLVQAGGSLRLSCAASGNIFAWYAMGGYRQAPGKERELVADISSRGGSTSYADSVKGRFTISRDNAKKTVYLQMNSLKPEDTAVYYCAASYYYPFEYYYWGQGTQVTVSS: low polyreactivity
QVQLVESGGGLVQAGGSLRLSCAASGSTLEFNARGWYRQAPGKERELVAVINRSDGSTYYAASVKGRFTISRDNAKNTVYLQMNSLKPEDTAVYYCAADRHQVSVISTEDYWGQGTQVTVSS: low polyreactivity
QVKLVESGGGLVQAGGSLRLSCAASGRIFVSKAMGWYRQAPGKERELVAAISKRGASTYYADSVKGRFTISRDKAKNPVYLQINSLKPEDTEVYYCNVVTTGGPNYDYWGQGTQVTVSS: high polyreactivity
QVQLVESGGGLVQAGGSLRLSCAASGNIFWGNAMGWYRQAPGKERELVATITTGGSTNYADSVKGRFTISRDNAKNTVYLQMNSLKPEDTAVYYCNKRTTTASHLTSDYWGQGTQVTVSS: low polyreactivity

// for each sequence below, give its polyreactivity (PSR sort gate)
1. QDQLVESGGGLVQAGGSLRLSSAGSGSIFFSYAMGWYRQAPGKEREFVAAINSDDASTYADSVKGRFTISRDNAKNTVYLQMNSLKPEDTAVYYCAASFLWSWYDYWGQGTQVTVSS
2. QVQLQESGGGQVQAGGSLRLSCAASGTIFLYAFMAWYRQAPGKEPKLVAAIDVGTTTKYADSVKGRFTISRDNAKNTVYLQMNSLKPEDTAVYYCAAYLCYLDDLGYWGQGTQVTVSS
3. QVQLVESGGGLVQAGGSLRLTCAASGTIFKRYAMRLYRQAPGKERELVATISSRGSCTNYADSLKGRFTISRDIAKNTVYLQMNSLKPQDTAVYYCASEVYRGDFWGQGTQVTVSS
4. QVQLVESGGGLVQAGGSLRLSCAASGRTFYSYAIGWYREAPGKERELVASISSGGGTNYADSVKGRFTISRDNAKNTVYLQMNSLKPDDTAVYYCAAKYWIFYPYDYWGQGTQVTVSS
5. QVQLVESGGGLVQAGGSLLLSCAASGITFFTYAKGWYRQAPGKERELDAAISGSGGSTYYADSVKGRFTISRDNAKKTVYLQMNSLKPEDTAVYYCAAERENGDHYRYYYWGQGTQVTVSS
6. QVQLVESGGGLVQAGGSLRLSCAASGSIFSYNAMGWYRQAPGKEMELVAAISSGGSTYYADSVKGSFTISRDNAKNTVYLQMNSLKPEDTAVYYCNVYYLIWPYGHQVKRRDYWGQGTQVTVSS
7. QVQLVESGGGLVQAGGSLRLSCAASGFTFSMYGMGWYRKAPGKERELVAAIRSGGSTNYADSVKGRFTISRDNAKNTVYLQMNSLKPEDTAVYYCAADVIPDGVKKPRMYYWGQGTQVTVSS
8. QVQLVESGGGLVQAGGSLLLSCAASGSTFSFYAMGWYRQAPGKERELVAAIDSGGRTKYADSVKGRFTISRDNAKNTVYLQMNSLKPEDTAVYYCAAVFRGLWLYDYWGQGTQVTVSS

1: low polyreactivity; 2: low polyreactivity; 3: high polyreactivity; 4: low polyreactivity; 5: low polyreactivity; 6: low polyreactivity; 7: low polyreactivity; 8: low polyreactivity

// for each sequence below, give its polyreactivity (PSR sort gate)
1. QVQLVESGGGLVQAGGSLRLSCAASGSIFGYYAMGWYRQAPGKEREFVATISTSGVSTYYADSVKGRFTISRDNAKNTVYLQMNSLKPEDTAVYYCNAYLWYTGWDYDGEDYWGQGTQVTVSS
2. QVQLVESGGGLVQAGGSLRLSCAASGRTFFSNAMGWYRQAPGKERELVAAISNGDNTYYADSVKGRFTISRDNAKNTVYLQMNSLKPEDTAVYYCAKDYRWVWRKYGYWGQGTQVTVSS
3. QVQLVESGGGLVQAGGSLRLSCAASGFIFRYYTMGWYRQAPGKERELVAAISSGTSTHYADSVKGRYTISRNNAKNTVNLQMNSLKPEDTAVYYCAADLPYWYNRKPIFPYYYWGQGTQVTVSS
4. QVQLVETCGGLVHAGGSLRLSCAASGSTFVDNSMGRYRQAPGKERELGADISWSGGSTYYADSVKGRFTNSRDNAKTTVYLQMNSLKPQDTAVYYCAAYRNDYGYWTYVYYTDDYDYWGQGTQVTVSS
5. QVQLVESGGGLVQAGGSLRLSCADSGSSFPSYAMLWYRQAPGKERELVAAISSSGGRTYYADYVKGRFTISRDNAKNTVYLQMNSLIPVDTAVYYCAADRRKWPTGGYWGEGTQVTVSS

["low polyreactivity", "low polyreactivity", "high polyreactivity", "low polyreactivity", "high polyreactivity"]
